# System Name: human TLR8 (Homo sapiens, UniProt Q9NR97)
# Sequence (Q9NR97 27-1041): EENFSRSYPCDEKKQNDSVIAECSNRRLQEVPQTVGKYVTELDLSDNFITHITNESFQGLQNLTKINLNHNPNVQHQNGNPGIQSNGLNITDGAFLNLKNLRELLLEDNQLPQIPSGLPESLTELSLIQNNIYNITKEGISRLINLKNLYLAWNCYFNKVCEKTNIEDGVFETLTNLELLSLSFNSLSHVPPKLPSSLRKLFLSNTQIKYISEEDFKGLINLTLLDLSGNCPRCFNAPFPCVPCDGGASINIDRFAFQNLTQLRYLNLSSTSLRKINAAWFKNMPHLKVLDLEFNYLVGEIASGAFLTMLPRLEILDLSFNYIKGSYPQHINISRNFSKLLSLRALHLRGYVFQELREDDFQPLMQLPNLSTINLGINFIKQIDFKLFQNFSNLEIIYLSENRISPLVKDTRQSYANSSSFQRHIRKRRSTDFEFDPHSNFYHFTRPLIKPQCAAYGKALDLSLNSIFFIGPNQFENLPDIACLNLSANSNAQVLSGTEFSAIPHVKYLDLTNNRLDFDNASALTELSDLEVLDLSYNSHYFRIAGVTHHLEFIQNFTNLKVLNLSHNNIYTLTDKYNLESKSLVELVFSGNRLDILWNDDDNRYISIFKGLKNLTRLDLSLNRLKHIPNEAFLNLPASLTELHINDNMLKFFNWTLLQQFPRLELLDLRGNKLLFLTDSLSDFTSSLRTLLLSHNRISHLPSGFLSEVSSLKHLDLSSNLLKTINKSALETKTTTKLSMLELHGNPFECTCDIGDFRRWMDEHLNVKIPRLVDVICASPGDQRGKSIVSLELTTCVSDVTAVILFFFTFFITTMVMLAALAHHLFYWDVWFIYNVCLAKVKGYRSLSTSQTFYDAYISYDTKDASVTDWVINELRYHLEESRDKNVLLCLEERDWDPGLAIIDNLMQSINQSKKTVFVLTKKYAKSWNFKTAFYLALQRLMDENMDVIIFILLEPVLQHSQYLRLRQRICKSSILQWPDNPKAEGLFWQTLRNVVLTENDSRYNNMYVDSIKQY
# Assay Remarks: TLR8 inhibition reporter assay (HEK-Blue SEAP)
# Measurement Conditions: HEK-Blue cells overexpressing human TLR8, R848 15.9 μM, 22 hour incubation
pIC50: −log10 of the molar value.

{"Compound": "Cc1cc2c(cc1-c1cc(C)c3ncnn3c1)[nH]c(=O)n2[C@H]1CC[C@@H](NC(C)C)CC1", "pIC50": 8.39}
{"Compound": "COc1cc(-c2cc3[nH]c(=O)n(C4CCN(C(C)C)CC4)c3cc2C(C)C)cn2ncnc12", "pIC50": 8.12}
{"Compound": "Cc1cc(-c2ccc3c(c2)[nH]c(=O)n3C2CCN(C)CC2)cn2ncnc12", "pIC50": 5.89}
{"Compound": "COc1cc(-c2cc3[nH]c(=O)n(C4CCC(N5CC(F)(F)C5)CC4)c3cc2C(C)C)cn2ncnc12 (single isomer, unassigned) [Example 296]", "pIC50": 8.47}
{"Compound": "Cc1c(-c2cc3[nH]c(=O)n(C4CCC(N5CCC6(CC5)COC6)CC4)c3cc2C(C)C)cn2ncnc2c1C (single isomer, unassigned) [Example 283]", "pIC50": 10.05}
{"Compound": "COc1cc(-c2cc3[nH]c(=O)n(C4CCC(N5CCNC(=O)C5)CC4)c3cc2C(C)C)cn2ncnc12 (single isomer, unassigned) [Example 233]", "pIC50": 8.72}
{"Compound": "Cc1cc2c(cc1-c1cc(C)c3ncnn3c1)[nH]c(=O)n2[C@@H]1CCCN(CCC(C)(C)C)C1", "pIC50": 7.31}
{"Compound": "COc1cc(-c2cc3[nH]c(=O)n(C4CCC(N5CCC(F)(F)C5)CC4)c3cc2C(C)C)cn2ncnc12 (single isomer, unassigned) [Example 295]", "pIC50": 8.10}
{"Compound": "COc1cc(-c2cc3[nH]c(=O)n([C@H]4CCCN(C5COC5)C4)c3cc2C(C)C)cn2ncnc12", "pIC50": 8.25}
{"Compound": "Cc1cc2c(cc1-c1cc(C)c3ncnn3c1)[nH]c(=O)n2[C@H]1CCCN(C2COC2)C1", "pIC50": 6.81}
{"Compound": "CCc1cc2c(cc1-c1cc(OC)c3ncnn3c1)[nH]c(=O)n2[C@H]1CC[C@@H](NC2CCOCC2)CC1", "pIC50": 9.27}
{"Compound": "COc1cc(-c2cc3[nH]c(=O)n([C@H]4CCCN(CC(C)C)C4)c3cc2C(C)C)cn2ncnc12", "pIC50": 8.40}
{"Compound": "COc1cc(-c2cc3[nH]c(=O)n(C4CCC(N5CCCC5)CC4)c3cc2C(C)C)cn2ncnc12 (centres unmarked) [Example 232]", "pIC50": 9.36}
{"Compound": "COc1cc(-c2cc3[nH]c(=O)n([C@H]4CCCN(CC5CCC5)C4)c3cc2C(C)C)cn2ncnc12", "pIC50": 8.23}

---

# System Name: human TLR9 (Homo sapiens)
# Sequence (Q9NR96 26-1032): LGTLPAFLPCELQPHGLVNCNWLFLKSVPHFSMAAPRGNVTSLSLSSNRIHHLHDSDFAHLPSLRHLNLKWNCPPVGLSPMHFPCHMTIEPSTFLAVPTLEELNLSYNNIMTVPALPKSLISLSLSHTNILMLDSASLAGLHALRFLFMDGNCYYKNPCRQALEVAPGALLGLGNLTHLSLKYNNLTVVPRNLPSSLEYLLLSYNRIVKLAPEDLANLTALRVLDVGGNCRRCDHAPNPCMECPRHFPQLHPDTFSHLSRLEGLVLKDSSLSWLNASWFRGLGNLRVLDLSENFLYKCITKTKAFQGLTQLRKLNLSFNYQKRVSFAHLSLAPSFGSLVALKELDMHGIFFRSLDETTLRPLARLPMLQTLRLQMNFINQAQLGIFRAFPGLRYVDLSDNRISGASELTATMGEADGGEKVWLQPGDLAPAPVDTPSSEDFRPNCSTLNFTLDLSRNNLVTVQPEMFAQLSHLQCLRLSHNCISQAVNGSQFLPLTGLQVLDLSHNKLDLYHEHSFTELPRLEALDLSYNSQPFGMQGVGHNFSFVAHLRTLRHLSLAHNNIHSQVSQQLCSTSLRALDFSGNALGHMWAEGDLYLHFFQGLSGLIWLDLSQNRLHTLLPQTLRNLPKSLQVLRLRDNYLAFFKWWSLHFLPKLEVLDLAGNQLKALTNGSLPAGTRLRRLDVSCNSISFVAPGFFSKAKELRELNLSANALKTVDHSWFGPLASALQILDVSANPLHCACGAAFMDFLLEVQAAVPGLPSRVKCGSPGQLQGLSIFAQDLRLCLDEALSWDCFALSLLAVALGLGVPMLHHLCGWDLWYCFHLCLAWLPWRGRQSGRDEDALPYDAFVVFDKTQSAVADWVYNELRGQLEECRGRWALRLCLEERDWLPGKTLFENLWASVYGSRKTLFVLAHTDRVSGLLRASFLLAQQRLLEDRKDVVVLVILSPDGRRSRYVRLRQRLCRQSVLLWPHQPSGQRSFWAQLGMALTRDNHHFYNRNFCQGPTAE
# Assay Remarks: TLR9 inhibition reporter assay (HEK-Blue SEAP)
# Measurement Conditions: HEK-Blue cells overexpressing human TLR9, ODN2006 5 nM, 22 hour incubation
pIC50: −log10 of the molar value.

{"Molecule": "COc1cc(-c2cc3[nH]c(=O)n([C@H]4CCCN(CC5CCOCC5)C4)c3cc2C(C)C)cn2ncnc12", "System Name": "human TLR9 (Homo sapiens)", "Qualifying Sign": "=", "pIC50": 5.11}
{"Molecule": "COc1cc(-c2cc3[nH]c(=O)n(C4CCN(C5COC5)CC4)c3cc2C(C)C)cn2ncnc12", "System Name": "human TLR9 (Homo sapiens)", "Qualifying Sign": "<", "pIC50": 4.30}
{"Molecule": "COc1c(C)c(-c2cc3[nH]c(=O)n(C4CCC(N5CCC(F)(F)CC5)CC4)c3cc2C(C)C)cn2ncnc12 (single isomer, unassigned) [Example 229]", "System Name": "human TLR9 (Homo sapiens)", "Qualifying Sign": "=", "pIC50": 4.52}
{"Molecule": "COc1cc(-c2ccc3c(c2)[nH]c(=O)n3C2CCN(C)CC2)cn2ncnc12", "System Name": "human TLR9 (Homo sapiens)", "Qualifying Sign": "=", "pIC50": 6.44}
{"Molecule": "Cc1c(-c2cc3[nH]c(=O)n(C4CCC(N5CCCC(F)C5)CC4)c3cc2C(C)C)cn2ncnc2c1C (stereo not drawn) [Example 274]", "System Name": "human TLR9 (Homo sapiens)", "Qualifying Sign": "=", "pIC50": 4.77}
{"Molecule": "COc1cc(-c2cc3[nH]c(=O)n([C@@H]4CCCN(CC5CCOCC5)C4)c3cc2C(C)C)cn2ncnc12", "System Name": "human TLR9 (Homo sapiens)", "Qualifying Sign": "=", "pIC50": 5.11}
{"Molecule": "COc1cc(-c2cc3[nH]c(=O)n(C4CCC(N5CCC(OC)C5)CC4)c3cc2C(C)C)cn2ncnc12 (stereo not drawn) [Example 284]", "System Name": "human TLR9 (Homo sapiens)", "Qualifying Sign": "=", "pIC50": 5.45}
{"Molecule": "COCCN1CCC[C@@H](n2c(=O)[nH]c3cc(-c4cc(OC)c5ncnn5c4)c(C(F)(F)F)cc32)C1", "System Name": "human TLR9 (Homo sapiens)", "Qualifying Sign": "=", "pIC50": 4.74}
{"Molecule": "COc1cc(-c2cc3[nH]c(=O)n([C@@H]4CCCN(CC5CCOCC5)C4)c3cc2C(F)(F)F)cn2ncnc12", "System Name": "human TLR9 (Homo sapiens)", "Qualifying Sign": "=", "pIC50": 4.90}
{"Molecule": "COc1cc(-c2cc3[nH]c(=O)n(C4CCC(N5CC(O)(C(F)(F)F)C5)CC4)c3cc2C(C)C)cn2ncnc12 (single isomer, unassigned) [Example 241]", "System Name": "human TLR9 (Homo sapiens)", "Qualifying Sign": "<", "pIC50": 4.30}
{"Molecule": "COc1cc(-c2cc3[nH]c(=O)n([C@@H]4CCCN(C5CCOCC5)C4)c3cc2C)cn2ncnc12", "System Name": "human TLR9 (Homo sapiens)", "Qualifying Sign": "=", "pIC50": 4.75}
{"Molecule": "Cc1cc(-c2ccc3c(c2)[nH]c(=O)n3C2CCN(C)CC2)cn2ncnc12", "System Name": "human TLR9 (Homo sapiens)", "Qualifying Sign": "=", "pIC50": 6.02}
{"Molecule": "CCc1cc2c(cc1-c1cc(OC)c3ncnn3c1)[nH]c(=O)n2[C@@H]1CCCNC1", "System Name": "human TLR9 (Homo sapiens)", "Qualifying Sign": "=", "pIC50": 5.60}
{"Molecule": "CCc1cc2c(cc1-c1cc(OC)c3ncnn3c1)[nH]c(=O)n2[C@@H]1CCCN(C2CCOC2)C1 (stereo partly drawn) [Example 212]", "System Name": "human TLR9 (Homo sapiens)", "Qualifying Sign": "<", "pIC50": 4.30}
{"Molecule": "COc1cc(-c2cc3[nH]c(=O)n([C@@H]4CCCN(C)C4)c3cc2C(F)(F)F)cn2ncnc12", "System Name": "human TLR9 (Homo sapiens)", "Qualifying Sign": "=", "pIC50": 6.21}
